meta.source: patent US20250250357A1

# system tested: T1, human MSLN-FL-his protein (human, UniProt Q13421 296-580)
# T1 construct: made in HEK293E cells, purified on nickel column; also called hMSLN-FL-his; human MSLN full-length protein; not shown: His tag
# T1 sequence (Q13421 other isoform, or with tags, fused parts or gaps): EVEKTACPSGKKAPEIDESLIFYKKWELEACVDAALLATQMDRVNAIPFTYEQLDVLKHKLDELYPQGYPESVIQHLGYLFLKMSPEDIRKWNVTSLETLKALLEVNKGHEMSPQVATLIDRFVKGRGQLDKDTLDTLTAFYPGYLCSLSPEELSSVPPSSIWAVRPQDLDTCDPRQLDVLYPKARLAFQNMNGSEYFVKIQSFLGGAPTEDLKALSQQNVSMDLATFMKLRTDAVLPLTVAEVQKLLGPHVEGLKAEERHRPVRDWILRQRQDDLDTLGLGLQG
# procedure text: competitive ELISA; row F8-5.15; also: test concentration or dose not given here
Items are presented alongside their recorded competition rate.
Write down the numeric answer in % and omit the unit.

>>> observed("S009-F8-31.22 (antibody, human IgG1, kappa, V domains shown, human-murine chimeric antibody, human IgG1/kappa constant regions) VH: EVQLVESGGDLVKPGGSLKLSCAASGFTFSTYGMSWVRQTPDKRLEWVATISSGGSYTYYPDSLKGRFTISRDNAKNTLYLQMSSLKSEDTAMYYCARHEGYYYGKDYWGQGTTLTVSS VL: DIVLTQSPATLSVTPGDSVSLSCRASHSISNNLHWYQQKSHESPRLLIKYASQSISGIPSKFSGSGSGTDFTLSINSVETEDFGMYFCQQTNSWPLTFGAGTKLELKR")
86.5
>>> observed("S009-F8-13.8 (antibody, human IgG1, kappa, V domains shown, human-murine chimeric antibody, human IgG1/kappa constant regions) VH: EFQLQQSGPELVKPGASVKISCKASGYSFTDYNMNWVKQTNGKSLEWIGIINPNYGTSSYNQKFKGKATLTVDQSSSTAYMQLNSLTSEDSAVYYCARVGRDNSGFDYWGQGTTLTVSS VL: QIVLTQSPAIMSASPGEKVTMTCSASSSVSYMYWYQQKPGSSPRLLIYDTSNLASGVPVRFSGSGSGTSYSLTISRMEAEDAATYYCQQWSSYPPTFGSGTELEIKR")
99.9

Below: the item to evaluate.
// competition rate lookup, key: S009-F8-12.13 (antibody, human IgG1, kappa, V domains shown, human-murine chimeric antibody, human IgG1/kappa constant regions) VH: QVQLQQPGAELVKPGASVKLSCKASGYTFTSYWMHWVKQRPGQGLEWIGMIHPNSGSTNYNEKFKSKATLTVDKSSSTAYMQLSSLTSEDSAVYYCARRTPIITLVGHWYFDVWGTGTTVTVSS VL: DIVMTQSHKFMSTSVGDRVSITCKASQDVGTAVAWYQQKPGQSPKLLIYWASTRHTGVPDRFTGSGSGTDFTLTISNVQSEDLADYFCQQYSSYPLTFGAGTKLELKR
99.3
